Catalogue of compounds with associated TGI
tested on: MOLT-4 leukemia; assay: NCI tumour cell line growth inhibition, 48 h

CC(C)=CCC[C@@H](C)C1=C(N)C(O)=C(C)C(=O)C1=O :: > 67.5 µM
C(=NC12CC3CC(CC(C3)C1)C2)C1CCCCC1 :: > 100 µM
CC(C)(C)OC(=O)CC(NC(=O)OCc1ccccc1)NC(=O)OC(C)(C)C (configuration not stated) :: 55.6 µg/mL
CCOC(=O)c1nc2ccc(C(F)(F)F)cc2nc1Oc1ccc(OC)cc1 :: > 100 µM
OC[C@H]1C[C@](O)(c2ccc(F)cc2)[C@@H](c2ccc(F)cc2)O1 :: > 100 µM
CN(c1ccccc1)c1c2ccccc2nc2[nH]c3ccccc3c12 :: > 29.6 µM

Query compound follows.
Given "CN1S(=O)(=O)N(C)P12(N=P(CP(=NP13(N(C)S(=O)(=O)N1C)N(C)S(=O)(=O)N3C)(c1ccccc1)c1ccccc1)(c1ccccc1)c1ccccc1)N(C)S(=O)(=O)N2C" , state its recorded TGI.
> 100 µM
